Data provenance: patent US20110230403A1

Reported IC50 values follow for various compounds
target: human SGLT1 (Homo sapiens, UniProt P13866); construct: expressed in transfected cells; host or cells: CHO-K1 or HEK293 cells; assay: hSGLT1 assay: analogous [14C]-AMG uptake in CHO-K1 or HEK293 cells expressing hSGLT1; type: cell-based; settings: n = 1-4, hSGLT1-transfected cells
Sequence (P13866 whole entry): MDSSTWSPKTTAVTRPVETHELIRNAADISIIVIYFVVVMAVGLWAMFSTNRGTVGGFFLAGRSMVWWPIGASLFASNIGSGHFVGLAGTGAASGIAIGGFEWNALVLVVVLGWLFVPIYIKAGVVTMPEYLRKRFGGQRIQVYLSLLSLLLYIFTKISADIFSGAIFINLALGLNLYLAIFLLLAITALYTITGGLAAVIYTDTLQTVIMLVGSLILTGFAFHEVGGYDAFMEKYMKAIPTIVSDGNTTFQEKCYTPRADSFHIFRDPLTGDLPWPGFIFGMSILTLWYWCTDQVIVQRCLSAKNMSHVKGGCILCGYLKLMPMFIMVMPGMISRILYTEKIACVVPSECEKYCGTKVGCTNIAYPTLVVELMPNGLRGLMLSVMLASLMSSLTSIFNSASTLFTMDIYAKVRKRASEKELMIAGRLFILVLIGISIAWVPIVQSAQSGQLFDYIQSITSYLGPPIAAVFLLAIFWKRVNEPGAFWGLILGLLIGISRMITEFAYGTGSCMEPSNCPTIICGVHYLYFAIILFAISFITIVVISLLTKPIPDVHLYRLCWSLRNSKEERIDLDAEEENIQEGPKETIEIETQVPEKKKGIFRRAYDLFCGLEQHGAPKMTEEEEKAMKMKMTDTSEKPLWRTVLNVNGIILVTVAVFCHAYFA

chemical_structure: CCOc1ccc(Cc2cc([C@@H]3O[C@H](CSc4cc(NC(C)=O)ccc4F)[C@@H](O)[C@H](O)[C@H]3O)ccc2Cl)cc1
IC50: < 50 nM

IN: Could you please provide reported IC50 for `CCOc1ccc(Cc2cc([C@@H]3O[C@H](CSc4nnnn4C)[C@@H](O)[C@H](O)[C@H]3O)ccc2Cl)cc1` ? Thanks!
OUT: < 1000 nM

IN: Return the recorded IC50 value; entry: `CCOc1ccc(Cc2cc([C@@H]3O[C@H](CSc4cccc(C(=O)N(C)C)c4)[C@@H](O)[C@H](O)[C@H]3O)ccc2Cl)cc1`
OUT: < 50 nM
